system: Escherichia coli; assay: Antibacterial activity against Escherichia coli DH10beta harboring pHuLUC3 after 18 to 20 hrs by microdilution method; type: functional
OBSERVED_PROPERTY: MIC (µg/mL)
Give the value in µg/mL but do not write µg/mL after it.

SAMPLE_SMILES: O=C(c1cccc(C(F)(F)F)c1)N(/N=N/c1ccc([N+](=O)[O-])cc1Br)c1ccc([N+](=O)[O-])cc1Br
SYSTEM_UNDER_TEST: Escherichia coli
UOM: µg/mL
MIC: 32
//
SAMPLE_SMILES: O=C(c1ccncc1)N(/N=N/c1ccc([N+](=O)[O-])cc1)c1ccc([N+](=O)[O-])cc1
SYSTEM_UNDER_TEST: Escherichia coli
UOM: µg/mL
MIC: 16
//
SAMPLE_SMILES: O=C(c1ccccc1F)N(/N=N/c1ccc([N+](=O)[O-])cc1Cl)c1ccc([N+](=O)[O-])cc1Cl
SYSTEM_UNDER_TEST: Escherichia coli
UOM: µg/mL
MIC: 64
//
SAMPLE_SMILES: O=C(c1cccnc1)N(/N=N/c1ccc([N+](=O)[O-])cc1F)c1ccc([N+](=O)[O-])cc1F
SYSTEM_UNDER_TEST: Escherichia coli
UOM: µg/mL
MIC: 128
//
SAMPLE_SMILES: O=C(c1ccncc1)N(/N=N/c1ccc([N+](=O)[O-])cc1Br)c1ccc([N+](=O)[O-])cc1Br
SYSTEM_UNDER_TEST: Escherichia coli
UOM: µg/mL
MIC: 32
//
SAMPLE_SMILES: O=C(c1ccncc1)N(/N=N/c1ccc([N+](=O)[O-])cc1Cl)c1ccc([N+](=O)[O-])cc1Cl
SYSTEM_UNDER_TEST: Escherichia coli
UOM: µg/mL
MIC: 16
//
SAMPLE_SMILES: O=C(c1ccc(F)cc1)N(/N=N/c1ccc([N+](=O)[O-])cc1Br)c1ccc([N+](=O)[O-])cc1Br
SYSTEM_UNDER_TEST: Escherichia coli
UOM: µg/mL
MIC: 64
//
SAMPLE_SMILES: O=C(c1cccc(C(F)(F)F)c1)N(/N=N/c1ccc([N+](=O)[O-])cc1Cl)c1ccc([N+](=O)[O-])cc1Cl
SYSTEM_UNDER_TEST: Escherichia coli
UOM: µg/mL
MIC: 32

Escherichia coli / MIC / "CC(=O)N(/N=N/c1ccc([N+](=O)[O-])cc1Cl)c1ccc([N+](=O)[O-])cc1Cl" : value?
64

Escherichia coli / MIC / "COC(=O)N(/N=N/c1ccc([N+](=O)[O-])cc1Cl)c1ccc([N+](=O)[O-])cc1Cl" : value?
64

Escherichia coli / MIC / "O=C(c1ccccc1)N(/N=N/c1ccc([N+](=O)[O-])cc1Cl)c1ccc([N+](=O)[O-])cc1Cl" : value?
32

Escherichia coli / MIC / "O=C(c1ccccc1C(F)(F)F)N(/N=N/c1ccc([N+](=O)[O-])cc1Br)c1ccc([N+](=O)[O-])cc1Br" : value?
64
